Molecular target: Rap guanine nucleotide exchange factor 3 (Homo sapiens) (UniProt O95398)
Sequence (O95398 whole entry, looked up): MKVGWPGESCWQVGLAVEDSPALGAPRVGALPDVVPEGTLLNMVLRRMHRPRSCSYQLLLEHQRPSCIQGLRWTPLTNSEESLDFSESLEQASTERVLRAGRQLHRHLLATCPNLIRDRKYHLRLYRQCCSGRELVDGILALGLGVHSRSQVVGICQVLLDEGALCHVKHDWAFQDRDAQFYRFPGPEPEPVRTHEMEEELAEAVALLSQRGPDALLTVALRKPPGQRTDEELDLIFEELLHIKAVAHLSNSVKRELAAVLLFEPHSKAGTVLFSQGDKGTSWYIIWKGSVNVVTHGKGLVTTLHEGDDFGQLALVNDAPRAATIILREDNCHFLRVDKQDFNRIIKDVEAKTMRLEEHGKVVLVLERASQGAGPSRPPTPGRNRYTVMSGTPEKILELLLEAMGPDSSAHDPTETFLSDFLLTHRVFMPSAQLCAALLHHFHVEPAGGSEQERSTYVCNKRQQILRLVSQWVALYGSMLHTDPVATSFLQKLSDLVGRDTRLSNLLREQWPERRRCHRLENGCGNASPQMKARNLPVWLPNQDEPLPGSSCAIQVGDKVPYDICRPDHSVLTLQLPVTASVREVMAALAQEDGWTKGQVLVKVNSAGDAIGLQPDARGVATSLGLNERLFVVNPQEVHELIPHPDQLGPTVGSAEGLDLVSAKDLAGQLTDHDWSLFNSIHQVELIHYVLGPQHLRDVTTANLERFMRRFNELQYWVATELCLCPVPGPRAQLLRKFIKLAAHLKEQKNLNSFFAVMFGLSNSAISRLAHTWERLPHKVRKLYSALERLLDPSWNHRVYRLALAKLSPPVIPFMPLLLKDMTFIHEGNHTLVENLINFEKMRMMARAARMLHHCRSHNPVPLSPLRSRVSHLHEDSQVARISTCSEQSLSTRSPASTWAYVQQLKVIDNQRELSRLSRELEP
Assay: qHTS for Antagonist of cAMP-regulated guanine nucleotide exchange factor 3 (EPAC1): primary screen; also: nearly all actives have a fitted effect of over 50% in size
Conditions: EPAC1 GEF assay, Rap1b-BODIPY-GDP exchange fluorescence; series mostly up to 115 µM
In all, about 360,000 compounds went through this assay and about 520 (0.14%) were called active. Not shown: some 3% with an inconclusive outcome. Calls follow the shape of the dose curve; as a rule, active = well fitted inhibition curve with a large enough effect; inconclusive = small, poorly fitted or top-dose-only effect; inactive = no such curve, though single readings can be large or run the other way. The list comes from a sample in which actives are over-represented; it also holds close analogues and randomly drawn compounds.
Possible outcomes: YES for active, NO for inactive

* CN(C)C1CN(Cc2cn(Cc3ccccc3)nn2)S(=O)(=O)C1 (stereo unspecified) | NO
* CCOC(=O)[C@]12CCCC=C1N(Cc1ccc3c(c1)OCO3)C(=O)[C@H](CC(=O)N1CCN(C(=O)c3ccco3)CC1)C2 | NO
* Cc1ccc(S(=O)(=O)N2[C@@H](Cc3ccccc3)CO[C@H]2CC(=O)OCc2ccccc2)cc1 | NO
* CCOC(=O)c1cc2cc(OC)ccc2n1C1CCN(C)CC1 | NO
* Oc1c(Cl)cc(Cl)c(Cl)c1Cc1c(O)c(Cl)cc(Cl)c1Cl | YES
* COC(=O)C1=CN(c2c(C)cc(C)cc2C)C(N)=C(C#N)C1c1cccc(F)c1 (stereo unspecified) | NO
* CCOC(=O)c1c(C)[nH]c(C(=O)OCC(=O)N2CCCC2=O)c1C | NO
* CCc1nnc(NS(=O)(=O)c2ccc(NC(=S)NC(=O)c3cccs3)cc2)s1 | NO
* CC(=O)N1Cc2cc(C(=O)NCc3cccc(F)c3)nc(-c3cccc(C4=CCCC4)c3)c2[C@H]1CCO | NO
* CCOC(=O)[C@]12CCCC=C1N(CCC1=CCCCC1)C(=O)[C@H](CC(=O)NCCCCc1ccccc1)C2 | NO
* CCc1nnc(NS(=O)(=O)c2ccc(NC(=S)NC(=O)/C=C/c3cccs3)cc2)s1 | YES
* Cc1ccc(S(=O)(=O)N2CC3C(=O)C[C@@H](c4ccccc4Cl)N(S(=O)(=O)c4ccc(C)cc4)C3CC2c2ccccc2)cc1 (stereo partly specified) | NO
* N#Cc1ccc(C(C(=O)NCc2ccccc2)n2c(=O)c(-c3ccco3)nc3ccccc32)cc1 (stereo unspecified) | NO
* COc1ccc([C@H]2CC(=O)C[C@@H](CCn3cc(CC4CCCC4)nn3)O2)cc1 | NO
* CO[C@@H]1CN(C)C(=O)c2cc(NC(=O)Nc3cc(F)ccc3F)ccc2OC[C@H](C)N(C(=O)c2ccccn2)C[C@@H]1C | NO
* Cc1cccc(C)c1-n1nnnc1C1(C)CCC(=O)N1CCOc1ccccc1 (stereo unspecified) | NO
* O=c1ccc2c(-c3ccccc3S(=O)(=O)O)c3ccc(O)c(O)c3oc-2c1O | YES
* COC(=O)c1ccc2nc(-c3ccc(F)cc3)c(Cc3ccc(C)cc3)n2c1 | NO
* Cc1c(C(=O)OCC(=O)N2CCCC2=O)oc2ccccc12 | YES
* CC1=C(C(=O)N(C(C)C)C(C)C)CC(CC(=O)NCCCCc2ccccc2)C(=O)N1CCC1=CCCCC1 (stereo unspecified) | NO
* Cn1cnc(S(=O)(=O)N2C[C@@H](O)COC[C@@H]3O[C@H](CC(=O)NC4CCC4)CC[C@H]32)c1 | NO
* Cc1ccc(S(=O)(=O)N2CCC(=O)N([C@H](COCc3ccccc3)C(C)C)CC2)cc1 | NO
* CCCc1nc2ccccc2n1C(C)C(=O)NC(C)(C)C (stereo unspecified) | NO
* COc1ccc(C(c2nnnn2C2CCCC2)N2CCN(C/C=C/c3ccccc3)CC2)cc1 (stereo unspecified) | NO
* O=C(Nc1ccc2c(c1)OCCO2)C1c2ccccc2OCC(=O)N1Cc1ccccn1 (stereo unspecified) | NO
* OC(c1ccccc1)(c1ccccc1)C1CCN(CCCOc2ccccc2)CC1 | NO
* COC(=O)c1ccc2c(c1)S(=O)(=O)NC2C (stereo unspecified) | NO
* O=C(C(=O)N1CCN(c2ccccc2)CC1)c1ccc2c(c1)OCO2 | NO
* CN(C)S(=O)(=O)c1cccc(C(=O)OCC(=O)N2CCCC2=O)c1 | NO
* COc1cc(OC)cc(C2=Cc3ccccc3C(CC(=O)c3ccco3)N2c2ccc(-c3cnc(OC)nc3)cc2)c1 (stereo unspecified) | NO
* CCCCn1nnnc1C(c1cc2ccccc2o1)N(C)Cc1ccc(Cl)c(Cl)c1 (stereo unspecified) | NO
* CCC(c1nc2ccccc2[nH]1)n1c(=O)c(-c2cccs2)nc2ccccc21 (stereo unspecified) | NO
* Cc1ccc(Cc2c(-c3ccc(Cl)cc3)nc3c4ccccc4ccn23)cc1 | NO
* COc1ccc(-c2cc3n(n2)CCc2nc4ccccc4n2-3)cc1 | NO
* O=C(C[C@H]1CC[C@H]2[C@@H](COC[C@H](O)CN2C(=O)c2ccccn2)O1)N1CCN(c2ccccc2)CC1 | NO
* C=CCC[C@@H](CCCCC)OC(=O)/C=C/[C@@H](O)[C@H](O)C[C@H](O)CC=C | NO
